targetSystem: T1, Bbc1, P47068
T1 sequence (P47068 1-78, looked up): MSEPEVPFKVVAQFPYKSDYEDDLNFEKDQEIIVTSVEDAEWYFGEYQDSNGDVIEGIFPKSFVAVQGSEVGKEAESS
methodSummary: SPOT array
testParameters: median of control spots 796
experimentalEndpoint: SPOT intensity

Some solved entries appear below for comparison.
# binder, SPOT intensity
rows = [
    ("HGKRRAPLLLAKLDV", 17),
    ("ANNQGPPNLPARDKS", 0),
]

[P] LRIKRKPVQTFFEFI
[Q] GTIARPLFLVVLFFI
Return label of the item with the larger SPOT intensity. Candidates: P , Q . Answer by quoting the chosen item's label.
P

[I] QTMRQAPKRPDADVA
[II] QNTPPLPPKPKSPHL
[III] KRKRFNLLLPKPYLT
[IV] RTRRRPPPPPIPSTQ
[V] IRMPSNPALPKKLLN
With regard to SPOT intensity, arrange the entries in ascending order, please. Form entry: labels listed in requested order.
II, V, I, III, IV

[P] GERSRPLVISILSSA
[Q] RSVKRPRRAPRPVVS
[R] VRTRRRPPPPPIPST
Sort these binders on SPOT intensity so the largest reading comes first. // respond by listing labels in the order requested
Q, R, P

[P] RSLRKRPTSPSISGS
[Q] MAMRPIPPLPTESEY
[R] TIRRRAPLSLLESHT
Falling order of SPOT intensity, please. # format: label list in the order the request specifies
P, R, Q
